# measurement_target: Muscarinic acetylcholine receptor M1 (Homo sapiens) (UniProt P11229)
# Sequence (P11229 whole entry, looked up): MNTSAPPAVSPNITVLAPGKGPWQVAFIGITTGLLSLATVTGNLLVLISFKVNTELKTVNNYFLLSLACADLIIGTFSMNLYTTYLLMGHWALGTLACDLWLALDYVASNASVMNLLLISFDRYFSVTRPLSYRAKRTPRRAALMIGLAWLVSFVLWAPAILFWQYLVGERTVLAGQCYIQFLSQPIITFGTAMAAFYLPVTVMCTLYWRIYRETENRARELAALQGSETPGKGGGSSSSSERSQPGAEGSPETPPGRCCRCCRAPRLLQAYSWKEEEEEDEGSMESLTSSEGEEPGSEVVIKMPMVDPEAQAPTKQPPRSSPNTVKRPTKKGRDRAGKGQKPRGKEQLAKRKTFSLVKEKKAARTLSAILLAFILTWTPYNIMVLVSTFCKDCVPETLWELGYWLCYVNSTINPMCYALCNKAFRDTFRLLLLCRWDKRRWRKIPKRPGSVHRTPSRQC
# method_description: Cholinergic receptor muscarinic 1 (CHRM1) small molecule antagonists, cell-based qHTS assay (AID 1963588); also: % is scaled to controls: 0 for no effect and ±100 for the full control effect; nearly all actives have a fitted effect of over 40% in size
# condition_label: CHRM1-CHO antagonist mode, calcium flux fluorescence; series mostly up to 61.5 µM
# Source text: National Center for Advancing Translational Sciences [NCATS] Division of Preclinical Innovation [DPI] U.S. Environmental Protection Agency [EPA] National Institutes of Environmental Health Sciences [NIEHS] National Toxicology Program [NTP] U.S. Food and Drug Administration [FDA] The CHRM1 is a muscarinic receptor. […] The CHRM1-CHO Calcium Flux Assay is a homogeneous fluorescence-based assay for detecting the intracellular calcium level using FDSS kinetic plate reader system. […]
Inconclusive results are not listed. Active and inactive are the calls of the source. Calls follow the shape of the full dose curve.
parameter: activity, negative = inhibition

>>> df
                                   molecule                        measurement_target            recorded_measurement
0                O=C1c2ccccc2C(=O)c2ccccc21  Muscarinic acetylcholine receptor M1 (Homo sapiens) (UniProt P11229)    2.2% [at 12.6 µM] (inactive)
1      CN(C)C(=S)[S-].CN(C)C(=S)[S-].[Cu+2]  Muscarinic acetylcholine receptor M1 (Homo sapiens) (UniProt P11229)  -2.33% [at 12.6 µM] (inactive)
2  CCCCCCC(=O)CCCCCC/C=C/C[C@@H](O)[C@H](O)[C@@](N)(CO)C(=O)O  Muscarinic acetylcholine receptor M1 (Homo sapiens) (UniProt P11229)   3.07% [at 12.6 µM] (inactive)
3       Nc1c(Br)cc(Br)c2c1C(=O)c1ccccc1C2=O  Muscarinic acetylcholine receptor M1 (Homo sapiens) (UniProt P11229)  -4.93% [at 12.6 µM] (inactive)
4  C[CH2][Hg][N]1C(=O)C2C(C1=O)C1(Cl)C(Cl)=C(Cl)C2(Cl)C1(Cl)Cl (stereo unspecified)  Muscarinic acetylcholine receptor M1 (Homo sapiens) (UniProt P11229)  -14.4% [at 12.6 µM] (inactive)
5  [Cl][Sn]([c]1ccccc1)([c]1ccccc1)[c]1ccccc1  Muscarinic acetylcholine receptor M1 (Homo sapiens) (UniProt P11229)  -4.75% [at 12.6 µM] (inactive)
